test: ATG_NFI_CIS: Attagene CIS-FACTORIAL HepG2 Assay for human Nuclear Factor I (NFI) (AID 2282989)
condition-label: HepG2 cis-regulatory reporter, NFI response element transcription; actives raise or lower the signal
Activity calls are given as the source filed them. The calls were made as follows: active = hit-call score of the fitted dose curve at least 0.9, where 1 is the maximum; inactive = score below 0.9.
Entry note: the call must match one of 1 (yes) = active, 0 (no) = inactive

Answered cases to consult:
CC(C)c1cccc(C(C)C)c1N1C(=O)c2ccc(O)cc2C1=O | 1 (yes)
CC[C@H]1OC(=O)[C@H](C)[C@@H](O[C@H]2C[C@@](C)(OC)[C@@H](O)[C@H](C)O2)[C@H](C)[C@@H](O[C@@H]2O[C@H](C)C[C@H](N(C)C)[C@H]2O)[C@](C)(O)C[C@@H](C)C(=O)[C@H](C)[C@@H](O)[C@]1(C)O | 0 (no)
Fc1ccccc1[C@@H](F)COC1CCC(Nc2ncnc3[nH]ncc23)CC1 (stereo partly specified) | 0 (no)
CC[C@H](C)C(=O)O[C@H]1C[C@@H](C)C=C2C=C[C@H](C)[C@H](CC[C@@H]3C[C@@H](O)CC(=O)O3)[C@H]21 | 0 (no)
Cc1c(-c2cccnc2)c2ccccc2n1CCCCC(=O)O | 0 (no)
CC(C)CCCCCCCOC(=O)CCCCC(=O)OCCCCCCCC(C)C | 0 (no)
O=C(O)c1cccc(Oc2ccccc2)c1 | 0 (no)
CCOc1cccc(-n2cc(C(=O)N3CCN(c4cc(C(=O)O)c5ccccc5c4)CC3)nc2-c2ccc(C)cc2)c1 | 0 (no)
O=C(O)CCN(C1(C(=O)NO)CCCC1)S(=O)(=O)c1ccc(Oc2ccc(F)cc2)cc1 | 0 (no)
CC(=O)OC[C@H]1O[C@@](COC(C)=O)(O[C@H]2O[C@H](COC(C)=O)[C@@H](OC(C)=O)[C@H](OC(C)=O)[C@H]2OC(C)=O)[C@@H](OC(C)=O)[C@@H]1OC(C)=O | 0 (no)

Tell me the assay call for COc1cccc(-c2ccc(/C=C\CN3CCCCCC3)cc2Cl)c1 please.
0 (no)

Tell me the assay call for Nc1nc2ncc(CNc3ccc(C(=O)N[C@@H](CCC(=O)O)C(=O)O)cc3)nc2c(=O)[nH]1 please.
0 (no)

Tell me the assay call for CCc1cc(SCc2sc(-c3ccc(C(F)(F)F)cc3)nc2CN2CCN(c3ccc(OC)cc3)CC2)ccc1OCC(=O)O please.
0 (no)

Tell me the assay call for CCC(C)(C)C(=O)O[C@H]1C[C@@H](C)C=C2C=C[C@H](C)[C@H](CC[C@@H]3C[C@@H](O)CC(=O)O3)[C@H]21 please.
0 (no)

Tell me the assay call for On1ccccc1=S please.
0 (no)

Tell me the assay call for O=P(OC(CCl)CCl)(OC(CCl)CCl)OC(CCl)CCl please.
1 (yes)

Entry source: PubChem BioAssay (EPA / NIEHS)
